test system: VRE (E. faecalis) ATCC 51575; assay type: cell-based, Enterococcus faecalis; conditions: ATCC 51575, 18 h
Square brackets hold non-standard residues; d marks the D form. Peptide text beside a SMILES is read from it.
We begin with a simple list: items and their reported MIC VRE (E. faecalis) ATCC 51575.
Give a bare numeral; the unit µM is implied.

Examples with their reported MIC VRE (E. faecalis) ATCC 51575 follow.
Indicate its recorded MIC VRE (E. faecalis) ATCC 51575; the compound in question is CC(C)[C@@H](NC(=O)[C@@H](Cc1c[nH]cn1)NC(=O)[C@@H](CCCNC(=N)N)NC(=O)[C@@H](CCCNC(=N)N)NC(=O)[C@H](N)CCCNC(=N)N)C(=O)N[C@H](Cc1c[nH]cn1)C(=O)N[C@@H](C(=O)N[C@@H](C(=O)N[C@H](Cc1c[nH]c2ccccc12)C(=O)N[C@H](CCCCN)C(N)=O)C(C)C)C(C)C [KSH58, rrrhvhvvwk] (H-[dR][dR][dR][dH][dV][dH][dV][dV][dW][dK]-NH2; N-terminus assumed) 10

Indicate its recorded MIC VRE (E. faecalis) ATCC 51575; the compound in question is CC(C)[C@@H](NC(=O)[C@H](N)Cc1c[nH]c2ccccc12)C(=O)N[C@H](C)C(=O)N[C@H](Cc1c[nH]c2ccccc12)C(=O)N[C@H](C)C(=O)N[C@@H](C(=O)N[C@H](Cc1c[nH]c2ccccc12)C(=O)N[C@H](CCCNC(=N)N)C(=O)N[C@H](CCCNC(=N)N)C(=O)N[C@H](CCCNC(=N)N)C(N)=O)C(C)C [KSH71, wvawavwrrr] (H-[dW][dV][dA][dW][dA][dV][dW][dR][dR][dR]-NH2; N-terminus assumed) 2.5

Indicate its recorded MIC VRE (E. faecalis) ATCC 51575; the compound in question is CC(C)[C@@H](NC(=O)[C@@H](Cc1c[nH]c2ccccc12)NC(=O)[C@@H](CCCNC(=N)N)NC(=O)[C@H](N)CCCNC(=N)N)C(=O)N[C@H](Cc1c[nH]c2ccccc12)C(=O)N[C@@H](C(=O)N[C@@H](C(=O)N[C@H](Cc1c[nH]c2ccccc12)C(=O)N[C@H](CCCCN)C(N)=O)C(C)C)C(C)C [KSH56, rrwvwvvwk] (H-[dR][dR][dW][dV][dW][dV][dV][dW][dK]-NH2; N-terminus assumed) 1.25

Further cases:
Indicate its recorded MIC VRE (E. faecalis) ATCC 51575; the compound in question is CC(C)[C@@H](NC(=O)[C@@H](Cc1c[nH]c2ccccc12)NC(=O)CNC(=O)[C@@H](CCCNC(=N)N)NC(=O)[C@@H](CCCNC(=N)N)NC(=O)[C@H](N)CCCNC(=N)N)C(=O)N[C@H](Cc1c[nH]c2ccccc12)C(=O)N[C@@H](C(=O)N[C@@H](C(=O)N[C@H](Cc1c[nH]c2ccccc12)C(=O)N[C@H](CCCCN)C(N)=O)C(C)C)C(C)C [KSH90, rrrgwvwvvwk] (H-[dR][dR][dR]G[dW][dV][dW][dV][dV][dW][dK]-NH2; N-terminus assumed) 1.25

Indicate its recorded MIC VRE (E. faecalis) ATCC 51575; the compound in question is CC(C)[C@@H](NC(=O)[C@@H](Cc1c[nH]c2ccccc12)NC(=O)[C@@H](Cc1c[nH]c2ccccc12)NC(=O)[C@H](NC(=O)[C@@H](Cc1c[nH]c2ccccc12)NC(=O)[C@@H](CCCNC(=N)N)NC(=O)[C@@H](CCCNC(=N)N)NC(=O)[C@H](N)CCCNC(=N)N)C(C)C)C(=O)N[C@H](Cc1c[nH]c2ccccc12)C(=O)N[C@H](Cc1c[nH]c2ccccc12)C(N)=O [KSH79, rrrwvwwvww] (H-[dR][dR][dR][dW][dV][dW][dW][dV][dW][dW]-NH2; N-terminus assumed) 1.25

Where these numbers come from: patent US20230287044A1
